Target: Hfq WT (Escherichia coli, UniProt P0A6X3 1-102)
Assay: fluorescence polarization
# pKd values compiled below
pKd is defined as minus the log10 of a concentration measured in mol/L.

binder | pKd
AUAACUA (ssRNA) [Aus (FAM)] | 7.66

Now examine the next entry.
(Q) Which pKd is reported for this binder? AAUAACUAAA (ssRNA) [OxyS 65-74 10-nt]
(A) 7.89
